Entry source: ChEMBL document CHEMBL5113403

biological target: CYP1A2 (Homo sapiens, UniProt P05177); assay: Inhibition of CYP1A2 in human liver microsomes at 10 uM preincubated for 10 mins followed by addition of NADPH-regenerating system and measured after 15 mins by LC-MS/MS analysis relative to control; type: ADME, Microsome; conditions: time 25 min
Sequence (P05177 whole entry): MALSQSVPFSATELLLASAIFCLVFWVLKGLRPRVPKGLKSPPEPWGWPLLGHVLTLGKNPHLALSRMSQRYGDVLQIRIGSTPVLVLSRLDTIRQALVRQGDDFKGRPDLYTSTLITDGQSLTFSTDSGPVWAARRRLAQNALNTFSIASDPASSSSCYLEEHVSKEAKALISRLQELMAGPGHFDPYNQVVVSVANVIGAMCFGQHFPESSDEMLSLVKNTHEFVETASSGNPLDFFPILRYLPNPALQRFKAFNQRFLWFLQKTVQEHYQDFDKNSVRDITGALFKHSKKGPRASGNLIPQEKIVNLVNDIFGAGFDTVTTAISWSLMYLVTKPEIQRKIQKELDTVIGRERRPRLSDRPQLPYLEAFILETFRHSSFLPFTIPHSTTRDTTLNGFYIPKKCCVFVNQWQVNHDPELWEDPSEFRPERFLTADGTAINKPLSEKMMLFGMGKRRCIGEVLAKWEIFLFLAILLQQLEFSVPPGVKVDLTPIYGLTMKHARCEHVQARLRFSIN
Metric: inhibition at 0.25 h, 10 µM (%)
Answer format: numeric, % implied, no suffix.

inhibition at 0.25 h, 10 µM on CYP1A2 (Homo sapiens, UniProt P05177) for `Cc1cc(Nc2nc(NCc3ccc(F)cc3F)nc3c2cnn3C2CCOCC2)n[nH]1` is 21.2

---

biological target: CYP3A4 (Homo sapiens); assay: Inhibition of CYP3A4 in human liver microsomes at 10 uM preincubated for 10 mins followed by addition of NADPH-regenerating system and measured after 15 mins by LC-MS/MS analysis relative to control; type: ADME, Microsome; conditions: time 25 min
Sequence (P08684 whole entry): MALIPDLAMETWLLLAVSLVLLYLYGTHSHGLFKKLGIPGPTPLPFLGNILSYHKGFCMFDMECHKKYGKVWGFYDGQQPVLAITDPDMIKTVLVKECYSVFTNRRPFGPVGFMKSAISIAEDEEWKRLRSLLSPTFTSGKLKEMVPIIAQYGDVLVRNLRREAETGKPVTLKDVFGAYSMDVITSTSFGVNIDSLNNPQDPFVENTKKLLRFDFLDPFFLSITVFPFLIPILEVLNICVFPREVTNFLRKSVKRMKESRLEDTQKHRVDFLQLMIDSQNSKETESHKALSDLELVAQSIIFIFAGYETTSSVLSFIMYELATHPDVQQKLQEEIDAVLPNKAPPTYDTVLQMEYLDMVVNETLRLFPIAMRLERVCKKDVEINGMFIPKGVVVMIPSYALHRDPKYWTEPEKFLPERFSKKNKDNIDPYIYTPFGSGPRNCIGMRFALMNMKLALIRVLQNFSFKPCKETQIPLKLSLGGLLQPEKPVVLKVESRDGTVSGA
Metric: inhibition at 0.25 h, 10 µM (%)
Answer format: numeric, % implied, no suffix.

inhibition at 0.25 h, 10 µM on CYP3A4 (Homo sapiens) for `Cc1cc(Nc2nc(NCc3ccc(F)cc3F)nc3c2cnn3C2CCOCC2)n[nH]1` is 0

---

assay: Plasma stability in human assessed as compound remaining at 100 uM measured after 120 mins by LC-MS/MS analysis relative to control; format: ADME, cell-free; conditions: read-out: Stability
Metric: remaining at 2 h, 100 µM (%)
Answer format: numeric, % implied, no suffix.

compound `Cc1cc(Nc2nc(NCc3ccc(F)cc3F)nc3c2cnn3C2CCOCC2)n[nH]1` , remaining at 2 h, 100 µM observed: 107

---

assay: MRT in Sprague-Dawley rat at 10 mg/kg, po by LC-MS/MS analysis; assay type: ADME, organism-based; details: in vivo
Metric: MRT
# output: numeric value plus its unit

molecule `Cc1cc(Nc2nc(NCc3ccc(F)cc3F)nc3c2cnn3C2CCOCC2)n[nH]1` , MRT observed: 3.13 h

---

assay: Metabolic stability in human liver microsomes assessed as compound remaining at 100 uM measured after 60 mins in the presence of NADPH by LC-MS/MS analysis; format: ADME, Microsome; conditions: read-out: Stability
Metric: remaining at 1 h, 100 µM (%)
Answer format: numeric, % implied, no suffix.

compound `Cc1cc(Nc2nc(NCc3ccc(F)cc3F)nc3c2cnn3C2CCOCC2)n[nH]1` , remaining at 1 h, 100 µM observed: 25.2

---

biological target: Serine/threonine-protein kinase PAK 4 (Homo sapiens, UniProt O96013); assay: Inhibition of PAK4 (unknown origin) using S2 as substrate incubated for 60 mins in the presence of ATP by time-resolved HTRF assay
Sequence (O96013 whole entry): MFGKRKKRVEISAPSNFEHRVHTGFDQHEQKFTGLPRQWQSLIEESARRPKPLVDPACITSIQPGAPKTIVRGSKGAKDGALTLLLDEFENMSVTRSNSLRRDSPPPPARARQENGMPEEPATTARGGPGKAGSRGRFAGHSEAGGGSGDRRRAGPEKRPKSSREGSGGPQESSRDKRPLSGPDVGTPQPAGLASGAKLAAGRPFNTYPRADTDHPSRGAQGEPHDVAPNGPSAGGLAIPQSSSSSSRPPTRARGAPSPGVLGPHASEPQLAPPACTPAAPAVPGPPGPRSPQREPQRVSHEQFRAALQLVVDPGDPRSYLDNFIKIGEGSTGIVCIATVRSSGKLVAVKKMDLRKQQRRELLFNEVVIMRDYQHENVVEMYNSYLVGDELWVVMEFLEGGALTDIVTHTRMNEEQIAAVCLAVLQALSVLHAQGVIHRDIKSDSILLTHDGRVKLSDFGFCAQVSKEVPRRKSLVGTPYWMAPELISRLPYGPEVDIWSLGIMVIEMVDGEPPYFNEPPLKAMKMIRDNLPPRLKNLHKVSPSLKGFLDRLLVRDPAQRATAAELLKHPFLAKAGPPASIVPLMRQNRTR
Metric: IC50 (nM)
Answer format: numeric, nM implied, no suffix.

molecule `Cc1cc(Nc2cc(Cc3ccccc3)nc(NC3CCNCC3)n2)n[nH]1` , IC50 observed: 5.9

---

test: AUCinfinity in Sprague-Dawley rat at 10 mg/kg, po by LC-MS/MS analysis; format: ADME, organism-based; parameters: time infinity, dose 10 mg/kg, route po; conditions: in vivo
Metric: AUC(0-inf) (ng·h/mL)
Answer format: numeric, ng·h/mL implied, no suffix.

compound `Cc1cc(Nc2nc(NCc3ccc(F)cc3F)nc3c2cnn3C2CCOCC2)n[nH]1` , AUC(0-inf) observed: 301

---

experiment: Half-life in Sprague-Dawley rat at 10 mg/kg, po by LC-MS/MS analysis; assay type: ADME, organism-based; details: in vivo
Metric: half-life (h)
Answer format: numeric, h implied, no suffix.

compound `Cc1cc(Nc2nc(NCc3ccc(F)cc3F)nc3c2cnn3C2CCOCC2)n[nH]1` , half-life observed: 1.75

---

assay: Plasma stability in human assessed as compound remaining at 100 uM measured after 10 mins by LC-MS/MS analysis relative to control; type: ADME, cell-free; conditions: read-out: Stability
Metric: remaining at 10 min, 100 µM (%)
Answer format: numeric, % implied, no suffix.

compound `Cc1cc(Nc2nc(NCc3ccc(F)cc3F)nc3c2cnn3C2CCOCC2)n[nH]1` , remaining at 10 min, 100 µM observed: 108

---

tested on: MDA-MB-231; experiment: Antiproliferative activity against human MDA-MB-231 cells assessed as cell growth inhibition incubated for 5 days by MTT assay; format: functional, cell-based; conditions: MDA-MB-231, 120 h
Metric: pIC50
Schema: pIC50 number; meaning minus log10 of the concentration expressed in molar units.

| Line notation | pIC50 |
| --- | --- |
| COc1ccc(CNc2nc(Nc3cc(C)[nH]n3)c3cn[nH]c3n2)cc1 | 5.88 |
| Cc1cc(Nc2nc(NCc3ccc(Cl)cc3)nc3[nH]ncc23)n[nH]1 | 5.12 |
| Cc1cc(Nc2nc(NCc3ccc(F)cc3F)nc3c2cnn3C2CCCCC2)n[nH]1 | 5.53 |
| Cc1cc(Nc2nc(NCc3ccc(C#N)cc3)nc3[nH]ncc23)n[nH]1 | 5.87 |
| Cc1cc(Nc2nc(NCc3ccc(Cl)cc3)nc3c2cnn3CC(C)(C)O)n[nH]1 | 5.40 |
| Cc1cc(Nc2nc(NCc3ccc(Br)cc3)nc3[nH]ncc23)n[nH]1 | 5.73 |

# next compound below
compound `Cc1cc(Nc2nc(NCc3ccccc3Br)nc3[nH]ncc23)n[nH]1` , pIC50 observed: 5.40

---

experiment: Plasma stability in human assessed as compound remaining at 100 uM measured after 60 mins by LC-MS/MS analysis relative to control; type: ADME, cell-free; settings: read-out: Stability
Metric: remaining at 1 h, 100 µM (%)
Answer format: numeric, % implied, no suffix.

compound `Cc1cc(Nc2nc(NCc3ccc(F)cc3F)nc3c2cnn3C2CCOCC2)n[nH]1` , remaining at 1 h, 100 µM observed: 99.2

---

Target: Serine/threonine-protein kinase PLK4 (Homo sapiens, UniProt O00444)
Sequence (O00444 whole entry): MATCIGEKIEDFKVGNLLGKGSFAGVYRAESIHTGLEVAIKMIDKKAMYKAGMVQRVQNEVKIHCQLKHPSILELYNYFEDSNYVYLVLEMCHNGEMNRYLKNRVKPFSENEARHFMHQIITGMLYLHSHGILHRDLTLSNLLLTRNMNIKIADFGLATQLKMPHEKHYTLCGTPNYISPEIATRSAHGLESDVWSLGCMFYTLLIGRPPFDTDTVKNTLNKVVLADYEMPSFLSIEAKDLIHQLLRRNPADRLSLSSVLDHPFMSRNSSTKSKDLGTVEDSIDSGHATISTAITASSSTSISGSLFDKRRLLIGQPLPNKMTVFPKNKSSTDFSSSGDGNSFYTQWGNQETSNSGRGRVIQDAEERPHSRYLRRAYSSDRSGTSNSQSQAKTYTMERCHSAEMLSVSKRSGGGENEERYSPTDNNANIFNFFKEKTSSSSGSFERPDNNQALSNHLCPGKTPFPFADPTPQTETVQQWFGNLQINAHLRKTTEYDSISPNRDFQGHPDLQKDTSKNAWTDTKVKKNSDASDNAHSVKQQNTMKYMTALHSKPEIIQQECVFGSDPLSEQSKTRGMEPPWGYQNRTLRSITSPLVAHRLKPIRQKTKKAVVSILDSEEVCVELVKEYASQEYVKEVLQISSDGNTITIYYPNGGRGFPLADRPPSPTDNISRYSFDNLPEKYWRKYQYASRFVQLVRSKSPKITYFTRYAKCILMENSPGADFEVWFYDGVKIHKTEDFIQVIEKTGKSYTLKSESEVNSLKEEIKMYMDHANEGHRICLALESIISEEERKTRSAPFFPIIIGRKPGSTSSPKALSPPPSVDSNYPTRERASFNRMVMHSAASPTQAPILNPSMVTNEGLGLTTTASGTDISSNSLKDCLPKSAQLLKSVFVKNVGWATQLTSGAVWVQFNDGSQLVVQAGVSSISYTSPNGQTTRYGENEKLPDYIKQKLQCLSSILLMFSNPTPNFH
Assay: Inhibition of recombinant human PLK4 incubated for 60 mins by Lanthascreen Eu kinase binding assay
pIC50: −log10 of the molar value.
Classification field: enter 1 for pIC50 values not below 8, -1 for values below it.

Record excerpt, results attached:
| Molecule | Cat |
| --- | --- |
| CC(C)(C)c1cc(Nc2nc(NCc3ccc(F)cc3F)nc3c2cnn3C2CCOCC2)n[nH]1 | -1 |
| Cc1cc(Nc2nc(NC3CCNC3)nc3[nH]ncc23)n[nH]1 (stereo not given) | -1 |
| Cc1cc(Nc2nc(NCc3ccc(F)cc3F)nc3c2cnn3CC(C)(C)O)n[nH]1 | 1 |

Threshold query (pIC50 >= 8) on `Cc1cc(Nc2nc(NC3CCNCC3)nc3[nH]ncc23)n[nH]1`
-1

Threshold query (pIC50 >= 8) on `Cc1cc(Nc2nc(Cl)nc3[nH]ncc23)n[nH]1`
-1

Threshold query (pIC50 >= 8) on `Cc1cc(Nc2nc(NCc3ccc(Br)cc3)nc3[nH]ncc23)n[nH]1`
1

Threshold query (pIC50 >= 8) on `Fc1ccc(CNc2nc(Nc3n[nH]c4ccc(Cl)cc34)c3cnn(C4CCOCC4)c3n2)c(F)c1`
-1
